ASSAY_METRIC: melting point

Previously resolved entries follow.
COMPOUND	RECORDED_VALUE
O=C(/C=C/c1cn(Cc2ccccc2)c2ccccc12)c1ccccc1 [Compound 23d]	161 to 163 °C
O=C(/C=C/c1cn(Cc2ccccc2)c2ccccc12)c1cccc(Cl)c1 [Compound 24d]	161 to 163 °C
CCCn1cc(/C=C/C(=O)c2ccc(OC)cc2)c2ccccc21 [Compound 26c]	161 to 162 °C
CCn1cc(/C=C/C(=O)c2ccc(OC)cc2)c2ccccc21 [Compound 26b]	165 to 168 °C
Cn1cc(/C=C/C(=O)c2ccc(C(F)(F)F)cc2)c2ccccc21 [Compound 28a]	160 to 162 °C

Please turn your attention to the following entry.
melting point reported for this compound CCCn1cc(/C=C/C(=O)c2ccc(Cl)cc2)c2ccccc21 [Compound 25c] : 160 to 162 °C
